Species: Rattus norvegicus
Assay protocol: Open TG-GATES - Regimen: Single
Format: toxicity, organism-based, Sprague-Dawley
Parameters: regimen Single, gender Male, age 6 weeks
Setup conditions: in vivo, po, 0 mg/kg, 3 h, tissue Plasma, route gavage, dose level Control

>  <Compound>
Cc1cccc(Nc2ccccc2C(=O)O)c1C

>  <A/G>
1.7

$$$$
>  <Compound>
CCOC(=O)[C@H](CCc1ccccc1)N[C@@H](C)C(=O)N1CCC[C@H]1C(=O)O

>  <A/G>
2.2

$$$$
>  <Compound>
Clc1c(Cl)c(Cl)c(Cl)c(Cl)c1Cl

>  <A/G>
1.7

$$$$
>  <Compound>
CC(CN1c2ccccc2Sc2ccccc21)N(C)C (stereo unspecified)

>  <A/G>
1.2

$$$$
>  <Compound>
CN1C(C(=O)Nc2ccccn2)=C(O)c2sc(Cl)cc2S1(=O)=O

>  <A/G>
1.7

$$$$
>  <Compound>
CN(C)[C@@H]1C(O)=C(C(N)=O)C(=O)[C@@]2(O)C(O)=C3C(=O)c4c(O)cccc4[C@@](C)(O)[C@H]3C[C@@H]12

>  <A/G>
2.2

$$$$
